measured-on: Calcium-dependent protein kinase 1 (Plasmodium falciparum (isolate 3D7))
test: PfCDPK1 kinase inhibitors, biochemical, TCAMS library (AID 1159585);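 note: inhibitors leave more ATP so luminescence rises with inhibition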
test-context: recombinant PfCDPK1, Kinase-Glo ATP depletion luminescence
Entries with a potency or affinity are not part of this list. Activity calls are given as the source filed them. No cut-off is given here; in the data, nearly all actives have IC50 up to about 0.98 µM.
endpoint: outcome

Use these answered entries as a reference point.
COc1ccc2nccc(NC(=O)C3(O)CCC(NCc4ccc5c(c4)NCCS5)CC3)c2n1 (stereo not given)
inactive
Nc1ccnc(N2CCC(CCOc3ccnc4cc(Cl)ccc34)CC2)c1
inactive
COc1ccc2nccc([C@@H](O)CN3CCC(NCc4ccc(OC)c(NC(C)=O)c4)CC3)c2c1
inactive
O=C(Cc1cccc(Cl)c1)Nc1cccc(-c2c[nH]c3nc(Nc4cccc(O)c4)ncc23)c1
inactive

Next item in the queue.
Prompt: Write down outcome measured for item O=C(Nc1ccc(OC(F)(F)F)cc1)NC1CCN(c2ccnc3ccccc23)C1 (stereo not given)
Response: inactive

====

measured-on: L-lactate dehydrogenase (Plasmodium falciparum (isolate CDC / Honduras)) (UniProt Q27743)
Sequence (Q27743 whole entry, looked up): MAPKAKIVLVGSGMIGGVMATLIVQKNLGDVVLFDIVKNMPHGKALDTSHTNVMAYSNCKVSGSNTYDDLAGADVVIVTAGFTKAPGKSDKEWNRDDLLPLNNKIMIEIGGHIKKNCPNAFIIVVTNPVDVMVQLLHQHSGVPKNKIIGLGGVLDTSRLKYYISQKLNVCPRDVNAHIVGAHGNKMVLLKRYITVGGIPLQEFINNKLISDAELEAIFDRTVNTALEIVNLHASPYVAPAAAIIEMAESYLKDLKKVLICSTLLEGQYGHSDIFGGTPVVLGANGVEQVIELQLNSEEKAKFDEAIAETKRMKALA
test: PfLDH activity inhibition – cell lysate, 3D7 strain, counter-screen for P. falciparum growth inhibition project (AID 2304);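 note: 0% = vehicle and 100% = reference inhibitor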
test-context: P. falciparum 3D7 crude extract, LDH APAD/NBT absorbance; at 2 µM; hits give high values
endpoint: inhibition (%)
Supply the numeric figure in %, leaving out any unit text.

Use these answered entries as a reference point.
N#Cc1ccc(N2CCN(Cc3ccc(-c4ccc(-c5nc6ccc(F)cc6[nH]5)s4)cc3)CC2)nc1
3
COc1ccc(C=NNc2nc(-c3ccccc3)cc(=O)[nH]2)cc1OC
4
CCCCCCNC(=O)C1Cc2c([nH]c3cc(Cl)ccc23)C2(CCN(Cc3ccccc3)CC2)N1 (stereo not given)
2
Cc1ncccc1C(=O)Nc1cccc(-c2cccc(-c3nc4ccc(C(F)(F)F)cc4[nH]3)c2)c1
1
O=S(=O)(NCCN1CCCC1)c1cccc(-c2ccc(CNCc3ccc(F)cc3)cc2)c1
6

Prompt: Write down inhibition measured for item "O=C(Nc1ccc(Cl)cc1)Nc1cccc(-c2cccc(-c3nc4ccc(F)cc4[nH]3)c2)c1"
Response: -2

Prompt: Write down inhibition measured for item "CN(C)c1cccc(-c2cnc3ccc(NCc4cccc(Cl)c4)nn23)c1"
Response: -3

====

test: antimalarial activity against Dd2 strain (AID 2302);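 note: 0% = DMSO untreated growth and 100% = chloroquine plus artemisinin killed control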
test-context: P. falciparum Dd2 in RBCs, LDH growth readout, 72 h; at 2 µM; hits give high values
Answer Not satisfied if growth inhibition is under 80%, and Satisfied if it is 80% or more.

Cc1[nH]c2ccc(-c3ccc(N(C)C)cc3)cc2c(=O)c1Cl
Satisfied
Cc1ccc(O)cc1Nc1ccnc2ccc(-c3csc(CNCCN4CCOCC4)n3)cc12
Satisfied
COc1ccc2nc3cc(Cl)ccc3c(NCCCCN3CCNCC3)c2c1
Not satisfied
COc1cc2c(cc1OCCN1CCC(N3CCCCC3)CC1)N(C(=O)/C=C/c1ccccc1Cl)CC2
Not satisfied

Next:
Prompt: Would you say "COc1ccc(-c2nc(NC(=O)COc3ccc(C(C)=O)cc3)sc2C)cc1" shows growth inhibition at minimum 80%?
Response: Not satisfied

====

test: human hepatoma cell viability loss – ATP luminescence, cytotoxicity control for P. falciparum antimalarial project, primary screen (AID 2303);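 note: 0% = DMSO wells and 100% = digitonin-killed cells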
test-context: HepG2 viability, 24-48 h, at 10 µM, hits give high values
Calls of active or inactive are those of the source.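 The calls were made as follows: active = inhibition above 50%; inactive = the rest.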
endpoint: inhibition

Cc1cccc(CN2CCCC3(CCN(Cc4ccccc4O)C3)C2)c1 (stereo not drawn)
14% (inactive)
NC(=O)c1ccc(NC(=O)CN(Cc2ccc(Cl)cc2)S(=O)(=O)c2ccccc2)cc1
2% (inactive)

Prompt: Write down inhibition measured for item "COc1ccc(CNCc2cccc(-c3cccc(-c4nc5ccccc5[nH]4)c3)c2)cc1"
Response: 24% (inactive)

Prompt: Write down inhibition measured for item COc1ccc(S(=O)(=O)NCC2CCCN(CCCCCNC(=O)/C=C/c3ccc(Cl)c(Cl)c3)C2)cc1 (stereo not drawn)
Response: 53% (active)

Prompt: Write down inhibition measured for item "Cc1[nH]c(C)c(-c2ccc(-c3ccc(C(F)(F)F)cc3C(F)(F)F)nc2)c(=O)c1Br"
Response: 30% (inactive)

Prompt: Write down inhibition measured for item CCCC[C@@H](C(=O)NCCc1ccc(Cl)cc1)N1C(=O)CCC1C(=O)Nc1ccc(Cl)c(Cl)c1 (stereo partly drawn)
Response: 4% (inactive)

Prompt: Write down inhibition measured for item O=C(NCc1ccccc1)c1ccc(C(=O)NCC2CNCCO2)cc1 (stereo not drawn)
Response: 4% (inactive)

Prompt: Write down inhibition measured for item "Oc1cccc(Nc2ccnc3cc(-c4cc5ccccc5o4)ccc23)c1"
Response: 9% (inactive)
